The measurements presented in this section are drawn from the supplement of paper PMC12042874.

Assay: amyloid nucleation score (Sup35N fusion, yeast selection) (log enrichment); library NNK2; higher = more nucleation; inactive = no reads after selection;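 further: zero at mode of non-aggregating sequences after 7 days selection at 30°C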
Parameter measured: amyloid nucleation score

>  <Substance>
SVTGPILICVSLIASFRRSM

>  <Observed value>
4.27

$$$$
>  <Substance>
VLLRVRRCYSVPTFRVWSAT

>  <Observed value>
1.39

$$$$
>  <Substance>
YITFLVWFQNFGYTGHD

>  <Observed value>
7.16

$$$$
>  <Substance>
SWRWKATAT

>  <Observed value>
-1.09

$$$$
>  <Substance>
RANGLSFCTSLLLGEYLNNG

>  <Observed value>
2.63

$$$$
>  <Substance>
GFSLVW

>  <Observed value>
-0.413

$$$$
>  <Substance>
PGSNALVGLTIRCNVILKGG

>  <Observed value>
4.68

$$$$
>  <Substance>
YYIQHHSF

>  <Observed value>
3.37

$$$$
>  <Substance>
DSSCFIIRLHSEFMLGSRSF

>  <Observed value>
-0.715

$$$$
>  <Substance>
LNLGREYVGLKD

>  <Observed value>
0.246

$$$$
>  <Substance>
ASHRVNGEVRYRRWSVLKRM

>  <Observed value>
0.839

$$$$
>  <Substance>
LDALGLDTFNMQLV

>  <Observed value>
0.236

$$$$
>  <Substance>
FQNITVYSFRATGVTGQRSC

>  <Observed value>
-0.447

$$$$
>  <Substance>
DHITVVAIKKEHLVEIIYVY

>  <Observed value>
-0.904

$$$$
>  <Substance>
KSMEGSNVMSRRYNWPWKDS

>  <Observed value>
0.062

$$$$
>  <Substance>
QYCARAR

>  <Observed value>
1.87

$$$$
>  <Substance>
PNRTFLLKVGA

>  <Observed value>
-1.1

$$$$
>  <Substance>
SFLMCGHWIACALTMMVMFQ

>  <Observed value>
0.896

$$$$
>  <Substance>
VGRNYLWYRTMPDIYCQVCG

>  <Observed value>
1.62

$$$$
>  <Substance>
AEVGTPESLLEGNIDRERIP

>  <Observed value>
0.42

$$$$
>  <Substance>
KETTGWLRYIP

>  <Observed value>
-0.56

$$$$
>  <Substance>
VWVKVLYYSRDICTLWSPGW

>  <Observed value>
-0.059

$$$$
>  <Substance>
SPLRALLTHVWRKQHTYFSN

>  <Observed value>
3.14

$$$$
>  <Substance>
SSFSIMLCGGVIFCIVAN

>  <Observed value>
5.02

$$$$
>  <Substance>
RSPDKDSMQTTLLIRRVTSW

>  <Observed value>
1.14

$$$$
>  <Substance>
FYAIGFLIGGLHFWDWHIWF

>  <Observed value>
-0.189

$$$$
>  <Substance>
NRIGLCRGLNQFFLPGMWSR

>  <Observed value>
0.283

$$$$

* * *

Assay: amyloid nucleation score (Sup35N fusion, yeast selection) (log enrichment); library NNK2; higher = more nucleation; inactive = no reads after selection

>  <Substance>
LSYRTCYRNMP

>  <amyloid nucleation score>
0.328

$$$$
>  <Substance>
MKLVECNMDGCDTNTSFGWL

>  <amyloid nucleation score>
-0.884

$$$$
>  <Substance>
TCQLMMCNFVFCCKMTSTLK

>  <amyloid nucleation score>
8.25

$$$$
>  <Substance>
KSVRGPCSYIFKYSCY

>  <amyloid nucleation score>
2.59

$$$$
